Experiment: Antioxidant activity assessed as NO radical scavenging activity after 150 mins by griess reagent method
Format: functional
The reader will find reported IC50 values listed item by item below.
Your answer should be a plain number; it is taken to be in µg/mL.

>  <molecule.smiles>
Cc1c(-c2nn3c(-c4ccccc4)nnc3s2)[se]c2ncnc(Nc3ccc(Cl)cc3)c12

>  <measured.parameter>
IC50

>  <quantity.unit>
µg/mL

>  <quantitative.result>
18.41

$$$$
>  <molecule.smiles>
Cc1ccc(-c2nnc3sc(-c4[se]c5ncnc(Nc6ccc(F)c(Cl)c6)c5c4C)nn23)cc1

>  <measured.parameter>
IC50

>  <quantity.unit>
µg/mL

>  <quantitative.result>
16.52

$$$$

Entry COc1ccc(-c2nnc3sc(-c4[se]c5ncnc(Nc6ccc(F)c(Cl)c6)c5c4C)nn23)cc1 ; IC50 = 12.74

----------
Assay: Antioxidant activity assessed as H2O2 radical scavenging activity
Format: functional
With a cut-off of 20 µg/mL, any IC50 strictly below it is called true; any IC50 meeting it or above is called false.

The following compounds have reported results that may help.
>  <compound>
Cc1c(-c2nn3c(-c4ccccc4)nnc3s2)[se]c2ncnc(Nc3ccc(F)c(Cl)c3)c12

>  <cat>
false

$$$$
>  <compound>
Cc1c(-c2nn3c(-c4ccc(O)cc4)nnc3s2)[se]c2ncnc(Nc3ccc(Cl)cc3)c12

>  <cat>
true

$$$$
>  <compound>
Cc1cc(C(C)(C)C)c(O)c(C(C)(C)C)c1 [BUTYLATED HYDROXYTOLUENE]

>  <cat>
true

$$$$
>  <compound>
Cc1c(-c2nn3c(-c4ccccc4)nnc3s2)[se]c2ncnc(Nc3ccc(Cl)cc3)c12

>  <cat>
true

$$$$
>  <compound>
Cc1c(-c2nn3c(-c4ccc([N+](=O)[O-])cc4)nnc3s2)[se]c2ncnc(Nc3ccc(Cl)cc3)c12

>  <cat>
false

$$$$

QUERY: Is it true that IC50 reported for Cc1ccc(-c2nnc3sc(-c4[se]c5ncnc(Nc6ccc(Cl)cc6)c5c4C)nn23)cc1 is less than 20 µg/mL?
RESULT: true

QUERY: For COc1ccc(-c2nnc3sc(-c4[se]c5ncnc(Nc6ccc(Cl)cc6)c5c4C)nn23)cc1 , is the recorded IC50 below the cut-off of 20 µg/mL?
RESULT: false

QUERY: # TODO verify IC50 < 20 µg/mL strictly for this compound: Cc1c(-c2nn3c(-c4ccc([N+](=O)[O-])cc4)nnc3s2)[se]c2ncnc(Nc3ccc(F)c(Cl)c3)c12
RESULT: false

QUERY: IC50 under 20 µg/mL? Item: O=C1O[C@H]([C@@H](O)CO)C(O)=C1O
RESULT: true

----------
Tested on: Klebsiella pneumoniae
Assay: Antibacterial activity against Klebsiella pneumoniae assessed as growth inhibition by microdilution broth susceptibility assay
Type: functional
Parameter MIC: see the listing below.
Form entry: value (µg/mL) — number only.

>  <molecule.smiles>
Cc1c(-c2nn3c(-c4ccc(O)cc4)nnc3s2)[se]c2ncnc(Nc3ccc(Cl)cc3)c12

>  <quantitative.result>
6.25

$$$$

The reported value for Cc1ccc(-c2nnc3sc(-c4[se]c5ncnc(Nc6ccc(Cl)cc6)c5c4C)nn23)cc1 in terms of MIC is 25

The reported value for COc1ccc(-c2nnc3sc(-c4[se]c5ncnc(Nc6ccc(Cl)cc6)c5c4C)nn23)cc1 in terms of MIC is 25

For this molecule ( Cc1ccc(-c2nnc3sc(-c4[se]c5ncnc(Nc6ccc(F)c(Cl)c6)c5c4C)nn23)cc1 ), measured MIC is 12.5

# molecule Cc1c(-c2nn3c(-c4ccc(O)cc4)nnc3s2)[se]c2ncnc(Nc3ccc(F)c(Cl)c3)c12 ; its MIC = 3.12
